Test system: U-251
Test: NCI tumour cell line growth inhibition, 48 h
Calls of active or inactive are those of the source. Cut-off read from the data, not from the text of the source: active = GI50 up to about 1.1 µM and inactive = higher.
Your reply should match one of these outcome classes. active, inactive

compound="Cc1cc(C)c(C2[C@H]3C(=O)N(c4ccc(Cc5ccc(N6C(=O)[C@@H]7ON(c8ccccc8)C(c8c(C)cc(C)cc8C)[C@@H]7C6=O)cc5)cc4)C(=O)[C@H]3ON2c2ccccc2)c(C)c1 (stereo partly drawn)" answer_label=inactive
compound=CCOC(=O)c1ccc(/N=N\c2ccc(N(CCC#N)CCC#N)cc2C)cc1 answer_label=inactive
compound="CCOc1ccc2nc(NC(=O)C(=O)C(C(=O)c3ccccc3-c3ccccc3)C3OC(=O)c4ccccc43)sc2c1 (stereo not drawn)" answer_label=inactive
compound="NC(=O)CC(N/C=C1/N=C(c2ccccc2)OC1=O)C(=O)O (stereo not drawn)" answer_label=inactive
compound=COc1ccc2c(c1)OCc1c-2oc2ccccc2c1=O answer_label=inactive

Give the logged outcome of this assay for the following compound: CC1=CCC2CC1NC(=O)CCOCCC(=O)NC2(C)C (stereo not drawn)
inactive

And then Nc1ncn2c(n1)nc1ccccc12 , what is it?
inactive

COc1ccc(-c2cc(-c3ccc(O)cc3O)c(C#N)c(=O)[nH]2)cc1 , same question.
inactive

Consider next the compound COc1ccc(-c2cc(-c3ccc(Nc4ccnc5cc(C(F)(F)F)ccc45)cc3)[nH]c(=O)c2C#N)cc1 in the same way.
inactive

Next record, please: Clc1ccc(COC(Cn2ccnc2)c2ccc(Cl)cc2Cl)c(Cl)c1 (stereo not drawn)
inactive

----------
System: NCI-H226
Test: NCI tumour cell line growth inhibition, 48 h
Calls of active or inactive are those of the source. No stated cut-off is given here; in the data, active = GI50 up to about 1.1 µM and inactive = higher.
Consider the following molecules and their measured GI50 readings.

Below, each entry is followed by its recorded GI50 result.
molecule="CCOc1ccc2nc(NC(=O)C(=O)C(C(=O)c3ccccc3-c3ccccc3)C3OC(=O)c4ccccc43)sc2c1 (stereo not drawn)" readout_kind=GI50 obs_value="5.31 µM (inactive)"
molecule=CCCCCC1=C/C(=C\c2[nH]c(-c3ccc[nH]3)cc2OC)N=C1C readout_kind=GI50 obs_value="0.012 µM (active)"
molecule=O=C1NC(N2CCCCC2)=N/C1=C\c1ccco1 readout_kind=GI50 obs_value="67.9 µM (inactive)"

Here is the next item to consider.
Fill in the recorded GI50 for this molecule, with NCI-H226 as test system: COc1cc2c(cc1OC)C1C[C@]3(CCN1CC2)C(=O)N(c1ccccc1)C(=O)N3C(C)=O (stereo partly drawn)
> 200 µM (inactive)

----------
Tested on: BT-549
Assay: NCI tumour cell line growth inhibition, 48 h
Active and inactive are the calls of the source. Rule as the data show it: active = GI50 up to about 1.1 µM and inactive = higher.
Readout Kind: GI50

For orientation, consider the following solved cases.
compound=NS(=O)(=O)c1ccc(NC(=O)Nc2cccc3ccccc23)cc1 obs_value="87.1 µM (inactive)"
compound="CCC(C#N)NC(=O)NC(C#N)CC (centres undefined)" obs_value="> 100 µM (inactive)"
compound=O=C(/C=C/c1ccc(OCc2ccccc2)c(OCc2ccccc2)c1)OCc1ccccc1 obs_value="> 100 µM (inactive)"
compound=Cc1cccc2c(=O)c3c(O)cc4c(c3n(C)c12)C=CC(C)(C)O4 obs_value="23.1 µM (inactive)"
compound="Cc1ccc(CC2(OCCN(C)C)CCC(C(C)(C)C)CC2)cc1 (centres undefined)" obs_value="4.61 µM (inactive)"
compound="CC[N+]1(C)CCC(O)(c2ccc(OC)cc2)C(C(=O)c2ccc(OC)cc2)C1 (centres undefined)" obs_value="16 µM (inactive)"
compound="c1ccc(C(NC2CCCCC2NCCNC2CCCCC2NC(c2ccccc2)(c2ccccc2)c2ccccc2)(c2ccccc2)c2ccccc2)cc1 (centres undefined)" obs_value="17.5 µM (inactive)"
compound="Nc1ccn(C2OC(CO)C(O)C2O)c(=O)n1 (centres undefined)" obs_value="286 µM (inactive)"

Proceeding to the next compound to report its GI50.
Find GI50 (BT-549) for the entry COC1C(O)C(O[C@H]2CC[C@@]3(C)C(CC[C@@H]4[C@@H]3CC[C@]3(C)[C@@H](C(C)OC5OC(CO)C(O)C(O)C5O)CC[C@]43O)C2)OC(C)C1OC1OC(CO)C(O)C(O)C1O (some centres undefined)
> 100 µM (inactive)
